Measurement Target: S. pasteurii urease (Sporosarcina pasteurii)
Construct: The native urease, purified from S. pasteurii CCM 2056
Sequence (P41020 whole entry): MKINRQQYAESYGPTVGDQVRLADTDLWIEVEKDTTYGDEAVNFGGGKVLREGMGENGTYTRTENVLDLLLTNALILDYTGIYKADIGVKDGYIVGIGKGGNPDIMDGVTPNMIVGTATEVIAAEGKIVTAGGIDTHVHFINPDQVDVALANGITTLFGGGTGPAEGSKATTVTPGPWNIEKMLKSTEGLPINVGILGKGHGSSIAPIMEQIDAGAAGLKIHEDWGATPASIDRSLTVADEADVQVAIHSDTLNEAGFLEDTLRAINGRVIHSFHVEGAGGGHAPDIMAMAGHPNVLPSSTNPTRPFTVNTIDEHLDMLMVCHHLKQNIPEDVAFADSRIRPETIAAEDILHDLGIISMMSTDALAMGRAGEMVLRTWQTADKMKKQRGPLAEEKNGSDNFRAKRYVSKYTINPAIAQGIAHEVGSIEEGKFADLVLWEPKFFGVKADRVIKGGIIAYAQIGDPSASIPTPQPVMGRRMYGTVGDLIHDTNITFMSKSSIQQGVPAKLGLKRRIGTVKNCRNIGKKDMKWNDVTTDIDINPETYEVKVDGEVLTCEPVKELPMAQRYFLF
Sequence (P41022 whole entry, further chain): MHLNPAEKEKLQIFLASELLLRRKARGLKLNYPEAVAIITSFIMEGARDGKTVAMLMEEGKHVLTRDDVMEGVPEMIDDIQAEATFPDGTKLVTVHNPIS
Sequence (P41021 whole entry, further chain): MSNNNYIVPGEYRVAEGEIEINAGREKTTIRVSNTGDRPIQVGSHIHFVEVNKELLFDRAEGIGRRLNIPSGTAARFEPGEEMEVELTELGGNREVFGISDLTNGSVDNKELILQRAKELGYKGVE
Assay: Purified S. pasteurii urease inhibition, cresol red assay, no preincubation
Condition Details: native purified urease, slow-binding, read-out: K i, S. pasteurii urease
What pKi was measured for each of the following?
Lab note — pKi values are minus log10 of concentrations in M.

// lookup pKi for O=c1c2ccccc2[se]n1Cc1ccc(Cl)c(C(F)(F)F)c1 [4n]
7.73

// lookup pKi for O=c1c2ccccc2[se]n1Cc1ccccc1F [4a]
8.44

// lookup pKi for O=c1c2ccccc2[se]n1Cc1ccc(Cl)cc1Cl [4f]
9.23

// lookup pKi for O=c1c2ccccc2[se]n1Cc1cc(Cl)ccc1Cl [4h]
8.04

// lookup pKi for O=c1c2ccccc2[se]n1Cc1ccc(F)cc1 [4d]
7.60

// lookup pKi for O=c1c2ccccc2[se]n1Cc1ccc(F)cc1F [4g]
8.60

// lookup pKi for O=c1c2ccccc2[se]n1Cc1ccc(F)c(F)c1F [4r]
8.53

// lookup pKi for O=c1c2ccccc2[se]n1Cc1c(F)cccc1F [4j]
8.94

// lookup pKi for O=c1c2ccccc2[se]n1Cc1ccc(F)c(C(F)(F)F)c1 [4o]
8.52

// lookup pKi for O=c1c2ccccc2[se]n1Cc1cccc(C(F)(F)F)c1 [4c]
8.60

// lookup pKi for O=c1c2ccccc2[se]n1Cc1cc(C(F)(F)F)cc(C(F)(F)F)c1 [4q]
8.48
